- STUDY_TARGET: HLA-A*02:50
- PROTOCOL_NOTES: IEDB peptide-MHC binding, purified MHC/competitive/fluorescence; filed as Kd, often an IC50 or EC50 that approximates it; bounds were set here for any values at or beyond the usual limits of such assays
- CONDITIONS: source organism: Corynebacterium glutamicum ATCC 13032
MEASURED_PARAMETER: Kd
Give the number first and the unit second.

**Query** Return reported Kd; argument: HLPELIWRS
**Result** 13.6 nM

----------
- STUDY_TARGET: HLA-B*54:01
- PROTOCOL_NOTES: IEDB peptide-MHC binding, purified MHC/competitive/radioactivity; filed as Kd, often an IC50 or EC50 that approximates it; bounds were set here for any values at or beyond the usual limits of such assays
- CONDITIONS: source organism: Variola virus
MEASURED_PARAMETER: pKd
Please note pKd is a logarithmic value: minus log10 of concentration in mol/L. Answer with that number alone.

**Query** Return reported pKd; argument: HPRHYATIM
**Result** 4.74
